# protocolDescription: photoluminescence quantum yield (fraction); solvent given as SMILES
# measurementSetup: in C1CCOC1
Kindly return class 1 if reported photoluminescence quantum yield is no lower than 0.3; return class 0 if it is lower.

See these solved cases before continuing.
molecule: CN(C)c1ccc(C2=Nc3scc[n+]3[B-](F)(F)O2)cc1
assignedCategory: class 1

molecule: CC1=CC(C)=[N+]2C1=C(c1ccc(N(C)C)cc1)c1c(C)cc(C)n1[B-]2(F)F
assignedCategory: class 0

molecule: F[B-]1(F)n2c(c3cc4ccccc4cc3c2-c2ccccc2)C=C2c3cc4ccccc4cc3C(c3ccccc3)=[N+]21
assignedCategory: class 0

molecule: N#Cc1c(N2CCCCC2)cc(-c2cccs2)c2c1CCc1ccccc1-2
assignedCategory: class 0

Ask: Check the entry "c1ccc2c(c1)CCc1c-2cnc2c1-c1ccccc1CC2" : does photoluminescence quantum yield equal or exceed 0.3?
Result: class 1

Ask: Check the entry "CC(C)(C)c1ccc(-c2c(-c3cccc(-n4c5ccccc5c5ccccc54)c3)c(C#N)c(-c3cccc(-n4c5ccccc5c5ccccc54)c3)c(-c3ccc(C(C)(C)C)cc3)c2-c2ccc(C(C)(C)C)cc2)cc1" : does photoluminescence quantum yield equal or exceed 0.3?
Result: class 0

Ask: Check the entry "O=Cc1c(O)c(-c2nc3ccccc3s2)cc2ccccc12" : does photoluminescence quantum yield equal or exceed 0.3?
Result: class 0

Ask: Check the entry "CCOC(=O)c1ccccc1-c1c2ccc(=O)cc-2oc2cc(OC(=O)[C@H](CO[Si](C)(C)C(C)(C)C)NC(=O)OC(C)(C)C)ccc12" : does photoluminescence quantum yield equal or exceed 0.3?
Result: class 0

Attribution: the Deep4Chem optical property database
